Measured values drawn from patent US20250051443A1 for this set.

Here the recorded MFI is given for each entry.
- measurement.target: T1, human CD3 (human, UniProt P07766 23-207; P09693 23-182; P04234 22-171)
- T1 construct: whole, on cells; also called CD3 on Jurkat T cells; CD3 on primary human T cells
- procedure.text: flow cytometry, hybridoma supernatant on CD3+ Jurkat cells
Give the number; MFI is assumed, so skip it.

As a guide, the following entries are already answered.
INPUT: Would you mind telling me what MFI value was observed for F282-2D5 (antibody, V domains shown, also called F282-2D5-2) VH: QVQLQQPGTELVKPGASVKLSCKASGYTFTSYWMHWVKQRPGQGLEWIGNINPSNGGTNYNENFKTKATLTVDKSSSTAYMQLSSLTSEDSAVYYCARDRSGQYYFDYWGQGTTLTVSS VL: DIVMSQSPSSLAVSAGEKVTMSCKSSQSLLNSRTRKNYLAWYQQKPGQSPKLLIYWASTRESGVPDRFTGSGSGTDFTLTISSVQAEDLAVYYCIQSYHLRTFGGGTILEIK ?
OUTPUT: 349

INPUT: Would you mind telling me what MFI value was observed for F332-1C9 (antibody, mouse IgG2a, V domains shown, Sister clones 1A10, 5H8, 8B11 share the same entries; also called F332-1C9-2; F332-1C9 (1A10, 5H8, 8B11)) VH: QVQLQQPGAELGKPGTSVNLSCKASGYTFTSYWMHWVKQRPGQGLDWIGNINPNSGTTNYNEKFKSKATLTVDKSSSTAYMQLSTLTSEDSAVYYCTRDISGQYYFDYWGQGTSLTVSS VL: DIVMSQSPSSLAVSAGEKVTMSCKSSQSLLNSRTRKNYLAWYQQKPGQSPKLLIYWASTRESGVPDRFTGSGSGTDFTLIISSVQAEDLAVYYCKQSYSLRTFGGGTKLEIK ?
OUTPUT: 277

---
INPUT: Would you mind telling me what MFI value was observed for F332-7B7 (antibody, mouse IgG2a, V domains shown, also called F332-7B7-2) VH: QVQLQQPGTELGKPGTSVKLSCKASGYTFTNYWMHWVKQRPGQGLEWIGNINPNSGSTNYNQKFKSKATLTLDKSSSTAYMQFSTLTSEDSAVYYCTRDSSGQYYFDYWGQGTTLTVSS VL: DIVMSQSPSSLAVSAGEKVTMSCKSSQSLLNSRTRKNYLAWYQQKPGQSPKLLIYWASTRESGVPDRFTGSGSGTDFTLTISSVQAEDLAVYYCIQSFHLRTFGGGTKLEIK ?
OUTPUT: 302
